Listed below: Cytotoxicity values for each entry.
assay: Cytotoxicity against Chinese hamster ovary cells; type: cell-based, Cricetulus griseus
READOUT NAME: Cytotoxicity

| COMPOUND | READOUT NAME | OBSERVED RESULT |
| --- | --- | --- |
| O=C(NCCCCCCCCCCNC(=O)C1=CC2c3ccccc3C1c1ccccc12)C1=CC2c3ccccc3C1c1ccccc12 | Cytotoxicity | > 2000 µM |
| CN(C)CC1C2c3ccccc3C(c3ccccc32)C1CN(C)C (stereo in doubt; 5) | Cytotoxicity | 1035 µM |
| CN(C)CC1C2c3ccccc3C(c3ccccc32)C1CN(C)C (stereo in doubt; 19) | Cytotoxicity | > 2000 µM |
| CN(C)C1CC2c3ccccc3C1c1ccccc12 (stereo unspecified) | Cytotoxicity | > 2000 µM |
| CC1C2c3ccccc3C(c3ccccc32)C1C(=O)/N=C/N(C)C (stereo unspecified) | Cytotoxicity | > 2000 µM |
| CC1C2c3ccccc3C(c3ccccc32)C1C(=O)Nc1ccncc1 (stereo unspecified) | Cytotoxicity | > 500 µM |
| NC(=O)C1C2c3ccccc3C(c3ccccc32)C1C(N)=O (stereo unspecified) | Cytotoxicity | > 2000 µM |
| CN(C)C=NC(=O)C1C2c3ccccc3C(c3ccccc32)C1C(=O)N=CN(C)C (stereo unspecified) | Cytotoxicity | 820 µM |
| CN(C)CC1=CC2c3ccccc3C1c1ccccc12 | Cytotoxicity | 1427 µM |
| CN(C)CC1C2c3ccccc3C(c3ccccc32)C1COC(=O)N(C)C (stereo unspecified) | Cytotoxicity | 758 µM |
| COC(=O)C1C2c3ccccc3C(c3ccccc32)C1C(=O)N(C)C (stereo unspecified) | Cytotoxicity | > 2000 µM |
